target: Recombinant human Gal3 (rhGal3) (TrueBinding, #QC200361) (human, UniProt P17931 2-250); test: cell-based or functional assay; also: test concentration or dose not given here
measurementType: % inhibition of TNFα secretion

847.11D6 (antibody, V domains shown) VH: EVKLQQSGPELMKPGTSMKISCKASGYSFTGYTMNWVKQSHGKNLEWIGLINPYNGGTNYNQKFRGKATLSVDKSSNTAYMELLSLTSEDSAVYYCARKDDYYGSSPYALDYWGQGTSVTVSS VL: DIVMTQSPASLAVSLGQRATISCRASESVENHVNSFMHWFQQKPGQPPKLLIYRASNLQSGIPARFSGSGSRTDFTLTINPVEADDVATYYCQQNNEVPYTFGGGTKLEIK	-3.1%

// returns reported % inhibition of TNFα secretion for input 20H5.A3 (antibody, mouse IgG2a, V domains shown) VH: QIQLVQSGPELKKPGESVKISCKASGYAFTTYGMSWVQQAPGKGLKWMGWVNTYSGVPTCADDFKGRFAFSLETSASTAYLQINNLRNEDTATYFCARGPYAMDYWGQGTSVTVSS VL: DIQMTQTTSSLSASLGDRVTINCSASQDISNYLNWYQQKPDGTVKLLIYYTSSLLSGVPSRFSGSGSGTDYSLTISNLEPEDIATYFCQQYSKLPYTFGSGTHLEIKR 60.8%
